Value source: ChEMBL document CHEMBL1128123

organism: Rattus norvegicus; experiment: Percent change in total cholesterol in cholic acid (0.5%)-cholesterol (1.5%)-peanut oil (5.5%)-fed rats; assay type: functional
quantity: Change TC (%)
Field format: number, assumed %, no unit text.

Observe how each entry below is paired with its result.
compound	Change TC [%]
CCCCCCCCCCCCn1nnc(C(NC(=O)c2c(OC)cc(OC)cc2OC)c2ccccc2)n1 (stereo not given)	-36
CCCCCCCCCCC(C)(C)NC(=O)c1c(OC)cc(OC)cc1OC	-10
CCCCCCCCCCCCn1nnc(C(NC(=O)c2ccc(OC)cc2)c2ccccc2)n1 (stereo not given)	-34
CCCCCCCCCCCCn1nnnc1C(NC(=O)c1cccc([N+](=O)[O-])c1)c1ccccc1 (stereo not given)	-31

Consider the record given below.
Reported Change TC of CCCCCCCCCCCCn1nnc(C(NC(=O)c2ccccc2OC)c2ccccc2)n1 (stereo not given) : -28

---

Biological target: UniProtKB O70536
Sequence (O70536 whole entry): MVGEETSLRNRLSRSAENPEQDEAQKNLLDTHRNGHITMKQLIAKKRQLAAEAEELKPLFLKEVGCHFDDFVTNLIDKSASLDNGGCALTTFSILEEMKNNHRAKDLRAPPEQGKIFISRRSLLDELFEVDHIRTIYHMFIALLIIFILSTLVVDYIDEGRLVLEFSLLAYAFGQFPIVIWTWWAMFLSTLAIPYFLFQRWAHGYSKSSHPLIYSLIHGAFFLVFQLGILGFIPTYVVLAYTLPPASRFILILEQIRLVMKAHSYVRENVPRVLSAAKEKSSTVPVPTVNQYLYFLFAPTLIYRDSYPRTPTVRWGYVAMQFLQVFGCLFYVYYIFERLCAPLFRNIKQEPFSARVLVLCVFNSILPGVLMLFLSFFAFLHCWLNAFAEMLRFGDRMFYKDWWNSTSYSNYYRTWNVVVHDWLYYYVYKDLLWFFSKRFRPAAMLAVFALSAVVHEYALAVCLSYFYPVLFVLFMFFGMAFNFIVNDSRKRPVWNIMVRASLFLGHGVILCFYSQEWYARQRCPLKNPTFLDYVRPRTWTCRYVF
Test: Concentration required for the in vitro inhibition of Acyl coenzyme A:cholesterol acyltransferase (ACAT) in liver microsomes isolated from cholesterol-fed rats
The entries below come with measured pIC50 values attached.
Field pIC50 (float): negative decimal logarithm of the concentration in molar.

Recorded pIC50, per entry:
molecule	quantity	meas value
CCCCCCCCCCCCn1nnc(C(NC(=O)c2ccccc2OC)c2ccccc2)n1 (stereo not given)	pIC50	6.19
CCCCCCCC/C=C\CCCCCCCCNC(=O)c1c(OC)cc(OC)cc1OC	pIC50	5.03
CCCCCCCCCCCCn1nnc(C(NC(=O)c2ccc(F)cc2F)c2ccccc2)n1 (stereo not given)	pIC50	6.31
CCCCCCCCCCCCn1nnc(C(NC(=O)c2cccc(Cl)c2)c2ccccc2)n1 (stereo not given)	pIC50	6.60
CCCCCCCCCCCCn1nnc(C(NC(=O)c2ccc(C(F)(F)F)cc2)c2ccccc2)n1 (stereo not given)	pIC50	6.07

Field pIC50 (entry CCCCCCCCCCCCn1nnc(C(NC(=O)c2ccccc2C(F)(F)F)c2ccccc2)n1 (stereo not given) ) reads 6.92

Given item CCCCCCCCCCCCn1nnnc1C(NC(=O)c1ccccc1C(F)(F)F)c1ccccc1 (stereo not given) , the value recorded as its pIC50 is 6.46

// field: pIC50; key: CCCCCCCCCCCCn1nnc(C(NC(=O)c2c(C(C)C)cccc2C(C)C)c2ccccc2)n1 (stereo not given) ; value = 6.09

pIC50 reported for this molecule CCCCCCCCCCCCn1nnc(C(NC(=O)c2ccccc2)c2ccccc2)n1 (stereo not given) : 6.46
